Measured target: MASP-2 in human serum (human, UniProt O00187 16-686)
Sequence (O00187 16-686 limits assumed): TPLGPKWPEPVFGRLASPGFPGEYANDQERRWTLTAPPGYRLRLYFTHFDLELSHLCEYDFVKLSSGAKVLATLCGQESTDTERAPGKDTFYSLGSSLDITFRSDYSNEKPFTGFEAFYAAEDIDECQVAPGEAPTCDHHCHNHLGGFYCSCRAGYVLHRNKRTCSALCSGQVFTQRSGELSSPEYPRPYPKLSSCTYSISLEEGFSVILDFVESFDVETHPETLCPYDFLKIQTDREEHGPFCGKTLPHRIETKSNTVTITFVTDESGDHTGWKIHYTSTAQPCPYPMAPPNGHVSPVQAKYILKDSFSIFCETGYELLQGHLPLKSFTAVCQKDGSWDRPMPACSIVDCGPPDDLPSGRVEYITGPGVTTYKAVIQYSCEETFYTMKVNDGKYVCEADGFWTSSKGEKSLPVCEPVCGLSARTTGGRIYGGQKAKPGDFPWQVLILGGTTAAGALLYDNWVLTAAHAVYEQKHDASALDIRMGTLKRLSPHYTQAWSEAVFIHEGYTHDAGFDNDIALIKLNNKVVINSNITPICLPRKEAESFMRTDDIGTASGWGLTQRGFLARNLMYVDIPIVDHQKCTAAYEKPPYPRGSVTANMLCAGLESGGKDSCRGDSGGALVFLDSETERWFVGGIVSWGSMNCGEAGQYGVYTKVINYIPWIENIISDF
Measurement protocol: cell-based or functional assay
Entries and their IC50, inhibition of C3b deposition values follow.

Binder: h28O14 H4K1 (antibody, V domains shown) VH: QVQLVQSGAEVKKPGSSVKVSCKASGYTFRSHTMHWVRQAPGQGLEWMGYINPSTGYINYNQKFQGRVTITADESTSTAYMELSSLRSEDTAVYYCARSNYAYYYGMDYWGQGTTVTVSS VL: DIQMTQSPSSLSASVGDRVTITCRASQDVNTAVAWYQQKPGKAPKLLIYSASYRYTGVPSRFSGSGSGTDFTLTISSLQPEDFATYYCQQHYNIPLTFGGGTKVEIK
Measurement units: nM
IC50, inhibition of C3b deposition: 0.506

Binder: h16B11 H2K4 (antibody, V domains shown) VH: QLQLQESGPGLVKPSETLSLTCTVSGYSITSDYAWNWIRQPPGKGLEWIGYISYSGRTSYNPSLKSRVTISRDTSKNQFSLKLSSVTAADTAVYYCARHYGDYWGQGTLVTVSS VL: EIVMTQSPATLSVSPGERATLSCRASQNVGTNVAWYQQKPGQAPRALIYSASYRESGIPARFSGSGSGTEFTLTISSLQSEDFAVYFCQQFNTNPLTFGGGTKVEIK
Measurement units: nM
IC50, inhibition of C3b deposition: 0.015

Binder: h16B11 H2K3 (antibody, V domains shown) VH: QLQLQESGPGLVKPSETLSLTCTVSGYSITSDYAWNWIRQPPGKGLEWIGYISYSGRTSYNPSLKSRVTISRDTSKNQFSLKLSSVTAADTAVYYCARHYGDYWGQGTLVTVSS VL: DIQMTQSPSSLSASVGDRVTITCRASQNVGTNVAWYQQKPGKAPKALIYSASYRQSGVPSRFSGSGSGTDFTLTISSLQPEDFATYFCQQFNTNPLTFGGGTKVEIK
Measurement units: nM
IC50, inhibition of C3b deposition: 0.018

Binder: h16B11 H3K6 (antibody, V domains shown) VH: QLQLQESGPGLVKPSETLSLTCTVSGYSITSDYAWNWIRQPPGKGLEWIGYISYSGRTSYNPSLKSRVTISVDTSKNQFSLKLSSVTAADTAVYYCARHYGDYWGQGTLVTVSS VL: EIVMTQSPATLSVSPGERATLSCRASQNVGTNVAWYQQKPGQAPRALIYSASYRQSGIPARFSGSGSGTEFTLTISSLQSEDFAVYFCQQFNTNPLTFGGGTKVEIK
Measurement units: nM
IC50, inhibition of C3b deposition: 0.071

Binder: h28O14 H1K1 (antibody, V domains shown) VH: QVQLVQSGAEVKKPGSSVKVSCKASGYTFRSHTMHWVRQAPGQGLEWMGYINPSTGYINYNQKFQGRVTLTADKSTSTAYMELSSLRSEDTAVYYCARSNYAYYYGMDYWGQGTTVTVSS VL: DIQMTQSPSSLSASVGDRVTITCRASQDVNTAVAWYQQKPGKAPKLLIYSASYRYTGVPSRFSGSGSGTDFTLTISSLQPEDFATYYCQQHYNIPLTFGGGTKVEIK
Measurement units: nM
IC50, inhibition of C3b deposition: 0.146

Binder: h16B11 H2K5 (antibody, V domains shown) VH: QLQLQESGPGLVKPSETLSLTCTVSGYSITSDYAWNWIRQPPGKGLEWIGYISYSGRTSYNPSLKSRVTISRDTSKNQFSLKLSSVTAADTAVYYCARHYGDYWGQGTLVTVSS VL: EIVMTQSPATLSVSPGERATLSCRASQNVGTNVAWYQQKPGQAPRLLIYSASYRESGIPARFSGSGSGTEFTLTISSLQSEDFAVYFCQQFNTNPLTFGGGTKVEIK
Measurement units: nM
IC50, inhibition of C3b deposition: 0.032

Binder: h16B11 H2K6 (antibody, V domains shown) VH: QLQLQESGPGLVKPSETLSLTCTVSGYSITSDYAWNWIRQPPGKGLEWIGYISYSGRTSYNPSLKSRVTISRDTSKNQFSLKLSSVTAADTAVYYCARHYGDYWGQGTLVTVSS VL: EIVMTQSPATLSVSPGERATLSCRASQNVGTNVAWYQQKPGQAPRALIYSASYRQSGIPARFSGSGSGTEFTLTISSLQSEDFAVYFCQQFNTNPLTFGGGTKVEIK
Measurement units: nM
IC50, inhibition of C3b deposition: 0.018

Binder: h16B11 H1K2 (antibody, V domains shown) VH: QMQLQESGPGLVKPSETLSLTCTVSGYSITSDYAWNWIRQPPGKGLEWIGYISYSGRTSYNPSLKSRVTISRDTSKNQFSLKLSSVTAADTAVYYCARHYGDYWGQGTLVTVSS VL: DIQMTQSPSSLSASVGDRVTITCRASQNVGTNVAWYQQKPGKAPKLLIYSASYRESGVPSRFSGSGSGTDFTLTISSLQPEDFATYFCQQFNTNPLTFGGGTKVEIK
Measurement units: nM
IC50, inhibition of C3b deposition: 0.04

Binder: h16B11 H3K5 (antibody, V domains shown) VH: QLQLQESGPGLVKPSETLSLTCTVSGYSITSDYAWNWIRQPPGKGLEWIGYISYSGRTSYNPSLKSRVTISVDTSKNQFSLKLSSVTAADTAVYYCARHYGDYWGQGTLVTVSS VL: EIVMTQSPATLSVSPGERATLSCRASQNVGTNVAWYQQKPGQAPRLLIYSASYRESGIPARFSGSGSGTEFTLTISSLQSEDFAVYFCQQFNTNPLTFGGGTKVEIK
Measurement units: nM
IC50, inhibition of C3b deposition: 0.44

Binder: h16B11 H1K4 (antibody, V domains shown) VH: QMQLQESGPGLVKPSETLSLTCTVSGYSITSDYAWNWIRQPPGKGLEWIGYISYSGRTSYNPSLKSRVTISRDTSKNQFSLKLSSVTAADTAVYYCARHYGDYWGQGTLVTVSS VL: EIVMTQSPATLSVSPGERATLSCRASQNVGTNVAWYQQKPGQAPRALIYSASYRESGIPARFSGSGSGTEFTLTISSLQSEDFAVYFCQQFNTNPLTFGGGTKVEIK
Measurement units: nM
IC50, inhibition of C3b deposition: 0.015
